Just for reference, ChEMBL document CHEMBL1140718 is where these values come from.

experiment: Volume of distribution in rat at 0.95 mg/kg, iv; assay type: ADME, organism-based; set-up: dose 0.95 mg/kg, route intravenous; details: in vivo
quantity_kind: Vd

- smiles_representation: "CCOc1c(Cl)cc(N2CCCCC2)cc1NC(=O)c1cc(C)c(OCCN)c(C)c1"
  result: "27 L/kg"

====

test: Oral bioavailability in rat at 4.2 mg/kg; format: ADME, organism-based; details: in vivo
quantity_kind: bioavailability (%)

- smiles_representation: "CCOc1c(Cl)cc(N2CCCCC2)cc1NC(=O)c1cc(C)c(OCCN)c(C)c1"
  u: "%"
  quantitative_result: 60

====

target: Urokinase-type plasminogen activator (Homo sapiens, UniProt P00749)
// assign Met if IC50 falls strictly below 2000 nM, else Not met (ties count as Not met)

- smiles_representation: "Cc1cc(C(=O)Nc2cccc(OC(C)C)c2)cc(C)c1OCCN"
  classification: "Not met"
- smiles_representation: "COc1ccccc1NC(=O)c1cc(Cl)c(OCCN)c(Cl)c1"
  classification: "Not met"
- smiles_representation: "CCOc1c(Cl)cc(N2CCCCC2)cc1NC(=O)c1cc(C)c(OC[C@@H](C)N)c(C)c1"
  classification: "Met"
- smiles_representation: "Cc1cc(C(=O)Nc2cc(OC(C)C)cc(OC(C)C)c2)cc(C)c1OCCN"
  classification: "Met"
- smiles_representation: "NC(N)=Nc1ncc(Cl)c2ccc(-c3cccc(C(=O)O)c3)cc12"
  classification: "Met"
- smiles_representation: "Cc1cc(C(=O)Nc2cc(F)cc(N3CCOCC3)c2)cc(C)c1OCCN"
  classification: "Met"

====

test: Half life in rat at 0.95 mg/kg, iv; format: ADME, organism-based; design: dose 0.95 mg/kg, route intravenous; settings: in vivo
quantity_kind: half-life (min)

- smiles_representation: "CCOc1c(Cl)cc(N2CCCCC2)cc1NC(=O)c1cc(C)c(OCCN)c(C)c1"
  quantity_kind: "half-life"
  quantitative_result: 450

====

assay: Dissociation constant, pKa of the compound; format: physicochemical

- smiles_representation: "CCOc1c(Cl)cc(N2CCCCC2)cc1NC(=O)c1cc(C)c(OCCN)c(C)c1"
  pKa: 8.75
